Collected from the literature: log10 of IC50 of various molecules toward Poly [ADP-ribose] polymerase tankyrase-1 (Homo sapiens, UniProt O95271).
The common logarithm of IC50 in nM is what is listed.

Example entries and their recorded answers appear below.
| molecule | log10 of IC50 |
| --- | --- |
| O=C(N[C@H]1CC[C@@]2(CCN(c3ccc(F)cc3Cl)C2=O)CC1)c1cnn2cc(CCO)cnc12 | 1.08 |
| CCNC(=O)c1nc[nH]c1C(=O)N[C@H]1CC[C@@]2(CCN(c3cc(C)c(F)cc3Cl)C2=O)CC1 | 0.94 |
| COCCNC(=O)c1nc[nH]c1C(=O)N[C@H]1CC[C@@]2(CCN(c3ccc(F)cc3Cl)C2=O)CC1 | 1.11 |
| COCC(C)NC(=O)c1nc[nH]c1C(=O)N[C@H]1CC[C@H](C(=O)Nc2ccc(F)cc2Cl)CC1 (some centres unmarked) | 2.48 |
| O=C(CN1CCC(C(=O)c2ccc(Cl)cc2)CC1)NCc1nc2c(c(=O)[nH]1)COCC2 | 1.57 |

Param item: CC(C)(C)C1Cc2[nH]c(=O)c3ccc(C#N)cc3c2CO1 (racemic) ; param system: Poly [ADP-ribose] polymerase tankyrase-1 (Homo sapiens, UniProt O95271); output log10 of IC50: 2.12

Entry Cc1cnc2c(C(=O)N[C@H]3CC[C@H](C(=O)Nc4ccncc4Cl)CC3)cnn2c1 , Poly [ADP-ribose] polymerase tankyrase-1 (Homo sapiens, UniProt O95271) data, log10 of IC50 value: 1.80
